Give kon for every item shown.
- tested system: AAV8 (adeno-associated virus serotype 8)
- assay text: SPR, AAV on CM5 chip
Write down the numeric answer in M⁻¹ s⁻¹ and omit the unit.

Inquiry: Check the records and state kon for A4-B2 (bispecific antibody) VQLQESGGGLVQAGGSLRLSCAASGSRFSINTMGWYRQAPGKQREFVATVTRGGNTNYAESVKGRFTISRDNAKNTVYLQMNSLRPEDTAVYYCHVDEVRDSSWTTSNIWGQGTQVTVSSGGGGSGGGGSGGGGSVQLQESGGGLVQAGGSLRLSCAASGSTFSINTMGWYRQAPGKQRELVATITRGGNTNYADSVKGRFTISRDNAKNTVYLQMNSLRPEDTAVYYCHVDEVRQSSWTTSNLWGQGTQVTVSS
Reply text: 138000

Inquiry: Write down kon measured for item A4-C9 (bispecific antibody) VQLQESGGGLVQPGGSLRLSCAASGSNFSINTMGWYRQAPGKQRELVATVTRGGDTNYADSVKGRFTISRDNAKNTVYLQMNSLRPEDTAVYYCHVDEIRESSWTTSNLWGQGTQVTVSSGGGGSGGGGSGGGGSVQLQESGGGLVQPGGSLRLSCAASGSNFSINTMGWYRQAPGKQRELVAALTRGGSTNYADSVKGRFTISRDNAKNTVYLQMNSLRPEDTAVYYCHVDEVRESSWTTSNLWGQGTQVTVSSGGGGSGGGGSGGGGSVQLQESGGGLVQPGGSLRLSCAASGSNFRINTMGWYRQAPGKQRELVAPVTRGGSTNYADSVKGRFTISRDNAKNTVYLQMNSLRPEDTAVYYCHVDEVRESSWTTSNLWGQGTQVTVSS
Reply text: 114000

Inquiry: // Input: A4-C6 (bispecific antibody) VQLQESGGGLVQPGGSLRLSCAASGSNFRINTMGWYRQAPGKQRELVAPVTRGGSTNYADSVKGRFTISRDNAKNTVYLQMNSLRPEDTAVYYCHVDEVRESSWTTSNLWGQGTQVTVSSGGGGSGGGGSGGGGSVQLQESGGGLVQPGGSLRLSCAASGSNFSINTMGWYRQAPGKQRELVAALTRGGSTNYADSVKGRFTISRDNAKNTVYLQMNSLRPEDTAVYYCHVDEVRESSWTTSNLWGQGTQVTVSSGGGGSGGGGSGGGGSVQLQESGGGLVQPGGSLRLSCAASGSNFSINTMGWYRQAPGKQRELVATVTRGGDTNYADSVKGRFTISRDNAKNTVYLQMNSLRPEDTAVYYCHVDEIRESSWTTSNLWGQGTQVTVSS . Output its kon only.
Reply text: 165000

Inquiry: Give a short answer stating reported kon for A4-B1 (VHH) VQLQESGGGLVQPGGSLRLSCAASGSIFSINLMGWYRQAPGKQRELVATITRGGNTNYAGSVKGRFTISRDNAKNTVYLQMNSLRPEDTAVYYCHVDEVRQSSWTTSNLWGQGTQVTVSSGGGGSGGGGSGGGGSVQLQESGGGLVQPGGSLRLSCAASGSIFSINLMGWYRQAPGKQRELVATITRGGNTNYAGSVKGRFTISRDNAKNTVYLQMNSLRPEDTAVYYCHVDEVRQSSWTTSNLWGQGTQVTVSS .
Reply text: 94500

Inquiry: In one line, give reported kon of the entry A4-C5 (bispecific antibody) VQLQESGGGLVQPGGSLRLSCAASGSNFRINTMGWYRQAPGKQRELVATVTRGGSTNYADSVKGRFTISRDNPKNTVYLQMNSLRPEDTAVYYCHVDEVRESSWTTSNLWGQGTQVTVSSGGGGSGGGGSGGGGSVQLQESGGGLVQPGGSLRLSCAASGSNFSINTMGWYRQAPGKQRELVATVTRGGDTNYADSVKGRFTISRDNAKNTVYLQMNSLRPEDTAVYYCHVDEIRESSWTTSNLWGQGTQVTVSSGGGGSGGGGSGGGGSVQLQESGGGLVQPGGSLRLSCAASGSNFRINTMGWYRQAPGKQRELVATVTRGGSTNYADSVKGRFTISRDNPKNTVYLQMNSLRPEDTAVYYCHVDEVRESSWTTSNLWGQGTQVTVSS .
Reply text: 183000

Inquiry: Look up and report measured kon for this entry: A4-C7 (bispecific antibody) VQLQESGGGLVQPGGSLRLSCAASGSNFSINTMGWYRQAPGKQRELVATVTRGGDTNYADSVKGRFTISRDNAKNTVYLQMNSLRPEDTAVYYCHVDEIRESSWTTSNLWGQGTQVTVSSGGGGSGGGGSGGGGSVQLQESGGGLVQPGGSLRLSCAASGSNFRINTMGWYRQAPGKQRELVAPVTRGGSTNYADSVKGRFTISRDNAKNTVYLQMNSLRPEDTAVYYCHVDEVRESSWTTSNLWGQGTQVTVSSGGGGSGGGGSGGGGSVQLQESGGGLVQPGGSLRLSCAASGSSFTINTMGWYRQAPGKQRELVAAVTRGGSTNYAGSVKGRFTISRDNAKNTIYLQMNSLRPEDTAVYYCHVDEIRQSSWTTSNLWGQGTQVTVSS
Reply text: 127000

Inquiry: Fill in reported kon for this entry: A4-C4 (bispecific antibody) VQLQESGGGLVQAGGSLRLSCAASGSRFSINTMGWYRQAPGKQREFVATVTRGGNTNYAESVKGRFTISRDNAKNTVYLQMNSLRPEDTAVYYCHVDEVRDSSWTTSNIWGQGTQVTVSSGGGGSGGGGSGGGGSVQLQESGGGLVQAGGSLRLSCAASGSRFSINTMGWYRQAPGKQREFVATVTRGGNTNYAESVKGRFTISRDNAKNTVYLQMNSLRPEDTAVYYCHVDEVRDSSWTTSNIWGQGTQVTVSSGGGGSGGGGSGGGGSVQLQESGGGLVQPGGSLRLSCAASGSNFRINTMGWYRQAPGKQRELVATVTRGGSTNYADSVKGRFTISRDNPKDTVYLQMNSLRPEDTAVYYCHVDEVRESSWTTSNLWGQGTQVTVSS
Reply text: 106000
